Recorded IC50 values for a group of compounds are listed next.
- subject-of-test: BRD4 BD2 (Homo sapiens, UniProt O60885, Y97A)
- Construct: BRD4 (1-477) (Y97A) and (Y390A); made in house; host or cells: E. coli (pET15b vector)
- method: BRD4 BD2 TR-FRET competition assay
- Type: binding
- condition-set: mean where stated, n given; read-out: pIC50 in the BRD4 BD2 TR-FRET assay (converted)

1. CNC(=O)c1cc(C(=O)N[C@H]2[C@@H]3CN(C(=O)OC(C)(C)C)C[C@@H]32)cc2c1O[C@H](C)[C@H]2c1ccccc1 [Example 38]: 10 nM
2. CNC(=O)c1cc(C(=O)NC2C[C@H]2CCO)cc2c1O[C@H](CF)[C@H]2c1ccccc1 (some centres unmarked) [Example 132]: 1000 to 100000 nM
3. CNC(=O)c1cc(C(=O)Nc2cn[nH]c2)cc2c1O[C@@H](CF)[C@@H]2c1ccccc1 [Example 186]: 1000 to 100000 nM
4. CNC(=O)c1cc(C(=O)N[C@H]2[C@@H]3CN(C(C)=O)C[C@@H]32)cc2c1O[C@@H](C)[C@@H]2c1ccccc1 [Example 189]: 1000 to 100000 nM
5. CNC(=O)c1cc(C(=O)NCCn2cnnc2)cc2c1O[C@H](CF)[C@H]2c1ccccc1 (relative stereo) [Example 133]: 1000 to 100000 nM

*Q* Name the recorded IC50 of the item CNC(=O)c1cc(C(=O)N[C@H]2[C@@H]3CN(C(C)=O)C[C@@H]32)cc2c1O[C@@H](CF)[C@@H]2c1ccccc1 [Example 190] in your answer.
*A* 1000 to 100000 nM

*Q* Return reported IC50. Input compound: CCC(=O)N1C[C@@H]2[C@H](C1)[C@H]2NC(=O)c1cc(C(=O)NC)c2c(c1)[C@@H](c1ccccc1)[C@H](CF)O2 [Example 164]
*A* 1000 to 100000 nM

*Q* Note IC50 for the compound shown: CNC(=O)c1cc(C(=O)Nc2cncnc2)cc2c1O[C@@H](CF)[C@@H]2c1ccccc1 [Example 200]
*A* 1000 to 100000 nM

*Q* Note IC50 for the compound shown: CNC(=O)c1cc(C(=O)NC)c2c(c1)[C@@H](c1ccccc1)[C@H](C)O2 [Example 100]
*A* 1000 to 100000 nM

The reported measurements were obtained from patent US10583112B2.
